Source: ChEMBL document CHEMBL5512638

tested-on: Cannabinoid receptor 2 (Homo sapiens)
assay: Displacement of [3H]CP55940 from recombinant human CB2 receptor expressed in HEK293 cell membrane assessed as inhibition constant incubated for 90 mins by competition binding assay
Format: cell membranes
condition-notes: read-out: Ki
So I've got a bunch of compounds here, and I need their Ki values.

Consider the reported Ki for these compounds:
# smiles-notation, reported-measurement
rows = [
    ("Cc1ccc(S(=O)(=O)n2cccc2C(=O)c2ccccc2)cc1", "> 10 µM"),
    ("O=C(NCc1ccco1)c1cccn1Cc1ccc(-c2ccccc2)cc1", "0.23 µM"),
    ("O=C(O)CC(=O)N[C@@H](Cc1c[nH]c2ccccc12)C(=O)Nc1ccc(O)cc1", "> 10 µM"),
    ("O=C(c1ccccc1Cl)c1cccn1Cc1ccc(O)cc1", "> 10 µM"),
    ("CCCCCn1cccc1C(=O)c1ccc(C)cc1", "> 10 µM"),
]

Hi team, please reply with Ki for each item in this list.
1. CC(=O)Oc1ccc(Cn2cccc2C(=O)c2ccccc2Cl)cc1
2. O=C(CCO)N[C@@H](Cc1c[nH]c2ccccc12)C(=O)Nc1ccc(O)cc1

> 10 µM
> 10 µM

Provide Ki for all items below, preserving their order.
1. Cc1ccc(C(=O)c2cccn2S(=O)(=O)c2ccc(C)cc2)cc1
2. O=C(c1ccccc1Cl)c1cccn1CCCCO
3. CCOC(=O)CCCn1cccc1C(=O)c1ccccc1Cl
4. O=C(NCc1ccccc1)c1cccn1Cc1ccc(F)cc1

["> 10 µM", "> 10 µM", "> 10 µM", "0.706 µM"]

====

Could you please report measured pKi for the items listed next?
tested-on: Cannabinoid receptor 2 (Homo sapiens, UniProt P34972)
Sequence (P34972 whole entry): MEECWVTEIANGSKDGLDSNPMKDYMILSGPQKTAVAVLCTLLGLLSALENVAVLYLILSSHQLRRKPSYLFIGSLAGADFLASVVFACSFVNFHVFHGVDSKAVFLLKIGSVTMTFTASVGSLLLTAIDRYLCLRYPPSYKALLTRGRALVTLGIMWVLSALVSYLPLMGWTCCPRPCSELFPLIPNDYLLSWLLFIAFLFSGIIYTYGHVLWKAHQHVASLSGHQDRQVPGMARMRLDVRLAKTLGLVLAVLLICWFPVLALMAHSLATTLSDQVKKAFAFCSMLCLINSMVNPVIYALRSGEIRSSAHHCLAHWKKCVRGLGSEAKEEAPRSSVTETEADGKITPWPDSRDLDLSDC
assay: Displacement of [3H]CP55940 from recombinant human CB2 receptor expressed in HEK293 cell membrane assessed as inhibition constant incubated for 90 mins by competition binding assay
Format: cell membranes
condition-notes: read-out: Ki
pKi: −log10 of the molar value.

// solved cases for pKi follow
# smiles-notation, tested-on, pKi
data = [
    ("CCCCCNC(=O)c1cccn1Cc1ccc(F)cc1", "Cannabinoid receptor 2 (Homo sapiens, UniProt P34972)", "< 5.00"),
    ("O=C(Nc1cccc2ccccc12)c1cccn1Cc1ccc(F)cc1", "Cannabinoid receptor 2 (Homo sapiens, UniProt P34972)", 7.22),
]

Dear colleague, could you send me pKi for each of the items below? Thanks.
1. O=C(Nc1cccc(CO)c1)c1cccn1Cc1ccc(F)cc1
2. O=C(O)CCCn1cccc1C(=O)c1ccccc1Cl
3. O=C(CO)Nc1cccc(NC(=O)c2cccnc2)c1
4. O=C(NCc1ccc(O)cc1)c1cccn1Cc1ccc(F)cc1
5. CC(=O)OCCn1cccc1C(=O)c1ccccc1Cl
6. O=C(c1ccccc1Cl)c1cccn1CC12CC3CC(CC(C3)C1)C2

[6.60, "< 5.00", "< 5.00", "< 5.00", "< 5.00", 6.17]

Dear reader, for each entry below, please note its pKi.
1. O=C(CCO)N[C@@H](Cc1ccc(O)cc1)C(=O)Nc1ccc(O)cc1
2. Cc1ccc(NC(=O)c2cccn2Cc2ccc(F)cc2)cc1
3. Nc1ccc(CNC(=O)c2cccn2Cc2ccc(F)cc2)cc1
4. O=C(OCCCCn1cccc1C(=O)c1ccccc1Cl)c1ccccc1

1. < 5.00
2. 6.57
3. < 5.00
4. < 5.00

====

tested-on: Cannabinoid receptor 2 (Homo sapiens)
assay: Displacement of [3H]CP55940 from recombinant human CB2 receptor expressed in HEK293 cell membrane incubated for 90 mins by competition binding assay
Format: cell membranes
condition-notes: read-out: IC50
For each of the molecules below, state its IC50.

# smiles-notation, tested-on, reported-measurement
records = [
    ("O=C(NC12CC3CC(CC(C3)C1)C2)c1cccn1Cc1ccc(F)cc1", "Cannabinoid receptor 2 (Homo sapiens)", "0.07 µM"),
    ("O=C(CCO)N[C@@H](Cc1ccc(O)cc1)C(=O)Nc1ccc(O)cc1", "Cannabinoid receptor 2 (Homo sapiens)", "> 10 µM"),
    ("Cc1ccc(C(=O)c2cccn2S(=O)(=O)c2ccc(C)cc2)cc1", "Cannabinoid receptor 2 (Homo sapiens)", "> 10 µM"),
    ("CC(=O)OCCn1cccc1C(=O)c1ccccc1Cl", "Cannabinoid receptor 2 (Homo sapiens)", "> 10 µM"),
    ("O=C(c1ccccc1Cl)c1cccn1Cc1ccc(O)cc1", "Cannabinoid receptor 2 (Homo sapiens)", "> 10 µM"),
]

Dear colleague, could you send me IC50 for each of the items below? Thanks.
1. O=C(O)CCCn1cccc1C(=O)c1ccccc1Cl
2. CC(=O)OCCCCn1cccc1C(=O)c1ccccc1Cl
3. Cc1ccc(CNC(=O)c2cccn2Cc2ccc(F)cc2)cc1

1: > 10 µM; 2: 7.91 µM; 3: > 10 µM

What value of measured IC50 is listed for `N=C(N)NCCCn1cccc1C(=O)c1ccccc1Cl` ? > 10 µM

====

assay: Chemical stability of compound in phosphate buffer at pH 7.4 assessed as compound remaining at 5 uM measured after 1 hrs by UHPLC-MS analysis
Type: physicochemical
condition-notes: read-out: Stability
observed-property: remaining at 1 h, 5 µM (%)
Numbers only, in %.

# smiles-notation, remaining at 1 h, 5 µM [%]
rows = [
    ("O=C(Nc1cccc2ccccc12)c1cccn1Cc1ccc(F)cc1", 101),
]

Now for another entry.
Tell me the measured remaining at 1 h, 5 µM of `O=C(NC12CC3CC(CC(C3)C1)C2)c1cccn1Cc1ccc(F)cc1` , please. 98.8

====

tested-on: UniProtKB P34972
assay: Displacement of [3H]CP55940 from recombinant human CB2 receptor expressed in HEK293 cell membrane assessed as inhibition constant incubated for 90 mins by competition binding assay
Type: cell membranes
condition-notes: read-out: Ki
Please provide measured Ki for the entries that follow.

Study these solved cases before continuing.
# smiles-notation, Ki
rows = [
    ("N=C(N)NCCCn1cccc1C(=O)c1ccccc1Cl", "> 10 µM"),
    ("COC(=O)CCCn1cccc1C(=O)c1ccccc1Cl", "> 10 µM"),
    ("CCCC(C)(C)c1ccc2c(c1)OC(C)(C)[C@@H]1CC=C(C)C[C@@H]21", "0.005 µM"),
]

Hi, could you look up Ki for each item in my list?
1. O=C(NCCO)[C@@H]1Cc2ccccc2CN1C(=O)c1ccc(O)cc1
2. CC(=O)OCCCCn1cccc1C(=O)c1ccccc1Cl
3. Cc1ccc(Cn2cccc2C(=O)c2ccc(Cl)cc2)cc1

1. > 10 µM
2. 1.26 µM
3. > 10 µM

====

For each entry below, report its pEC50 value.
tested-on: Cannabinoid receptor 2 (Homo sapiens, UniProt P34972)
assay: Agonist activity at human CB2 receptor expressed in CHO-K1 cells assessed as reduction in NKH-477 induced cAMP production by chemiluminescence based cAMP hunter assay
Type: functional, cell-based
Give bare numbers, as −log10 of the molar value.

# smiles-notation, pEC50
rows = [
    ("CCCC(C)(C)c1ccc2c(c1)OC(C)(C)[C@@H]1CC=C(C)C[C@@H]21", 7.05),
]

Continue with the next molecule.
Need pEC50, item `O=C(NC12CC3CC(CC(C3)C1)C2)c1cccn1Cc1ccc(F)cc1` 5.63

====

Provide the recorded IC50 for the entries that follow.
tested-on: Cannabinoid receptor 2 (Homo sapiens, UniProt P34972)
assay: Displacement of [3H]CP55940 from recombinant human CB2 receptor expressed in HEK293 cell membrane incubated for 90 mins by competition binding assay
Assay type: cell membranes
condition-notes: read-out: IC50

Examples with their reported IC50 follow.
# smiles-notation, IC50
rows = [
    ("CCCCCn1cccc1C(=O)c1ccc(C)cc1", "> 10 µM"),
    ("O=C(c1ccccc1Cl)c1cccn1CCCCO", "> 10 µM"),
    ("Nc1ccc(CNC(=O)c2cccn2Cc2ccc(F)cc2)cc1", "> 10 µM"),
    ("O=C(NCc1ccco1)c1cccn1Cc1ccc(-c2ccccc2)cc1", "1.47 µM"),
    ("CCOC(=O)CCCn1cccc1C(=O)c1ccccc1Cl", "> 10 µM"),
]

Now look at this entry.
What does the data say about its IC50? Entry: `Cc1ccc(S(=O)(=O)n2cccc2C(=O)c2ccccc2)cc1` > 10 µM

====

For each entry below, report its remaining at 1.5 h, 5 µM value.
assay: Chemical stability of compound in phosphate buffer at pH 7.4 assessed as compound remaining at 5 uM measured after 1.5 hrs by UHPLC-MS analysis
Assay type: physicochemical
condition-notes: read-out: Stability
Answers are plain numbers, in %.

# batch: return remaining at 1.5 h, 5 µM for each of the 2 molecules below
1. O=C(NC12CC3CC(CC(C3)C1)C2)c1cccn1Cc1ccc(F)cc1
2. O=C(Nc1cccc2ccccc12)c1cccn1Cc1ccc(F)cc1

99.2
103
